Biological target: T1, P6
T1 chain: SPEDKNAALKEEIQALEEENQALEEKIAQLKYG
Assay: two-hybrid library CC1;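 also: natural log of median RNA to DNA barcode read ratio; higher means stronger binding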
Conditions: mean of both orientations
assayEndpoint: interaction score
Give the figure by itself; no unit, no explanation.

Solved entries (count: 6):
>>> df
                                   binder  result
0     ENQALEQEIAQLEQEIAALEQKNAQLKYG [P11]   -2.83
1    EIQQLEEEISQLEQKNSQLKEKNQQLKYG [P3mS]    -2.8
2     KNAQLKEENAALEEKIQQLKEKIQALKYG [P10]   -1.77
3  ENARLEEKIRQLKQKNSQLKEEIQQLEYGC [P5SC2]   0.225
4  ENSQLEEKISQLKQKNSRLKEEIARLEYGC [P5SC1]   0.357
5  SPEDKIAQLKQKIQALKQENQQLEEENAALEYG [P4]   -2.83

Please find the next binder below.
Q: Query (binder): KNAQLKEKIAALKEKIQQLKEENQALEYG [P12] ; field requested: interaction score
Result: -2.42
